Target: Phosphatidylinositol 3-kinase regulatory subunit alpha [Q431L,Q432E,D433V,Q434L,V435F,V436Q,K437G,E438P]/4,5-bisphosphate 3-kinase catalytic subunit alpha isoform (Homo sapiens)
Test: Biochemical Assay
VALUE KIND: Ki (pM)
Answer in pM, number only, no unit symbol.

Request: Determine its reported Ki: C[C@]1(N2CCc3c(-c4cnc(N)nc4)nc(N4CCOCC4)nc32)CCN(C(=O)C2(CO)CC2)C1 [US9260439, 339]
Response: 80

Request: Determine its reported Ki: C[C@]1(N2CCc3c(-c4cnc(N)nc4)nc(N4CCOCC4)nc32)CCN(C(=O)C2(O)CC2)C1 [US9260439, 338]
Response: 71

Request: Determine its reported Ki: CC(=O)NCC(=O)N1CC(N2CCc3c(-c4cnc(N)nc4)nc(N4CCOC[C@@H]4C)nc32)C1 [US9260439, 201]
Response: 1400

Request: Determine its reported Ki: CC(C)(CO)C(=O)N1CC[C@](C)(N2CCc3c(-c4cnc(N)nc4)nc(N4CCOCC4)nc32)C1 [US9260439, 277]
Response: 34
